Tested on: P388
Assay: In vivo antitumor activity against NCI P-388 lymphocytic leukemia in mice at a dose of 100 mg/kg
Type: functional, Mus musculus
T/C overview
Assay readout: T/C

cpd_smiles=CCN(CC)CCCNc1c(O)cc(C)c2sc3ccccc3c(=O)c12 assay_readout=T/C reported=94
cpd_smiles=CCN(CC)CCNc1c(O)cc(C)c2sc3ccccc3c(=O)c12 assay_readout=T/C reported=104
cpd_smiles=Cc1ccc(NCCN(C)C)c2c(=O)c3ccc(O)cc3sc12 assay_readout=T/C reported=110
cpd_smiles=CCN(CC)CCNc1ccc(C)c2sc3ccc(O)cc3c(=O)c12 assay_readout=T/C reported=123
cpd_smiles=CCN(CC)CCNc1ccc(C)c2sc3c(O)cccc3c(=O)c12 assay_readout=T/C reported=100
cpd_smiles=Cc1ccc(NCCN(C)C)c2c(=O)c3cccc(O)c3sc12 assay_readout=T/C reported=95
cpd_smiles=CN(C)CCNc1ccc(O)c2sc3ccccc3c(=O)c12 assay_readout=T/C reported=90
cpd_smiles=CCN(CC)CCNc1ccc(C)c2sc3cccc(O)c3c(=O)c12 assay_readout=T/C reported=181
cpd_smiles=COc1cc(C)c2sc3ccccc3c(=O)c2c1NCCN(C)C assay_readout=T/C reported=127
cpd_smiles=CCN(CC)CCNc1ccc(C)c2sc3cc(O)ccc3c(=O)c12 assay_readout=T/C reported=108
cpd_smiles=COc1cc(C)c2sc3ccccc3c(=O)c2c1NCCCN(C)C assay_readout=T/C reported=103
